Molecular target: 5-hydroxytryptamine receptor 1B (Homo sapiens)
Assay: Inhibition of human recombinant 5HT1B receptor at 10 uM by radioligand binding assay
Calls of active or inactive are those of the source. No cut-off for these calls is given here.
experimental.endpoint: inhibition

Observe how each entry below is paired with its result.
Cc1cc(C(N)=O)ccc1-n1c(CCC(=O)O)ccc1-c1ccc(-n2ccnc2)cc1 = inactive
COc1ccc(-c2ccn(-c3ccc(C(=O)O)c(O)c3)c2-c2ccc(C(N)=O)cc2C)cc1 = Active
Cc1cc(C(N)=O)ccc1-c1c(CCC(=O)O)ccn1-c1ccc(-n2ccnc2)cc1 = inactive
Cc1cc(C(N)=O)ccc1-c1c(-c2ccc(-n3ccnc3)cc2)ccn1CCC(=O)O = inactive

Q: Fill in: inhibition of `COc1ccc(-c2ccn(-c3ccc(O)c([N+](=O)[O-])c3)c2-c2ccc(C(N)=O)cc2C)cc1` is ___
Ans: Active
